Source listed as ChEMBL document CHEMBL1144685.

- protocol.summary: AUC (0 to 24 hrs) in Sprague-Dawley rat at 2 mg/kg, po
- Type: ADME, organism-based
- Parameters: time < 24 hr, dose 2 mg/kg, route oral
- condition.set: plasma
readout.name: AUC(0-t) at 24 h (ng·h/mL)
Give the value in ng·h/mL but do not write ng·h/mL after it.

Suppose we examine the compound COc1cc2nccc(Oc3ccc4c(C(=O)Nc5ccccn5)cccc4c3)c2cc1OC ; what AUC(0-t) at 24 h value has been reported?
1240

----------
- protocol.summary: AUC (0 to 24 hrs) in human HT29 cell xenografted CD1 nu/nu mouse at 10 mg/kg, po
- Format: ADME, organism-based, HT-29
- Design: time < 24 hr, dose 10 mg/kg, route oral
- condition.set: in vivo
readout.name: AUC(0-t) at 24 h (µM·h)
A number alone suffices; assume µM·h.

// query AUC(0-t) at 24 h value for entry COc1cc2nccc(Oc3ccc4c(C(=O)Nc5ccc(Cl)cc5)cccc4c3)c2cc1OC
24.1
